Target: human mAChR M4 (Homo sapiens)
Sequence (P08173 1-479): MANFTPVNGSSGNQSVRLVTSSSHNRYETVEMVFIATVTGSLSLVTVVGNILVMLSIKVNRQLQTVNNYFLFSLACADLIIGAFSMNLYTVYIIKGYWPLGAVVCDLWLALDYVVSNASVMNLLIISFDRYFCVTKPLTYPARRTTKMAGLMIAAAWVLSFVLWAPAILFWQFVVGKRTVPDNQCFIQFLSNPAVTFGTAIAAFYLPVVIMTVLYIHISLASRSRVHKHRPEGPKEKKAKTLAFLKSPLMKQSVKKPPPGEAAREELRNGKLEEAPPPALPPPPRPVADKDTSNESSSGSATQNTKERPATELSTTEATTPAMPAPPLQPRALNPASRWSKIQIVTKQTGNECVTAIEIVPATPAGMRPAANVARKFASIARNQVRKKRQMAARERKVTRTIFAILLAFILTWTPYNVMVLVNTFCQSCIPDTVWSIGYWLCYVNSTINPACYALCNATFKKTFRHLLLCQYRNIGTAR
Experiment: mAChR M4 cell-based functional assay: calcium mobilization (Fluo-4, FDSS), potentiation of EC20 acetylcholine response in hM4-Gqi5 CHO-K1 cells
Details: potentiation of EC20 acetylcholine response, calcium mobilization, human M4
Measured pEC50 values are reported for all entries that follow.
pEC50 is a log-scale quantity: -log10 of the concentration expressed in molar.

The following compounds have reported results that may help.
> print(dat)
                            chemical.string  value.measured
1  Cc1cc2nccc(=O)n2nc1N1CCc2ncc(Nc3cccc(F)c3F)cc2C1            7.49
2  Cc1cc(=O)n2nc(N3CCc4ncc(-c5cnn(C)c5C)cc4C3)c(C)c(C)c2n1            6.12
3  COc1ccccc1-c1cnc2c(c1)CN(c1nn3c(=O)ccnc3c(C)c1C)CC2            6.18

Read the next record carefully.
Briefly, pEC50 measured for Cc1cc(=O)n2nc(N3CCc4ncc(N5CCCn6nccc65)cc4C3)c(C)c(C)c2n1 : 7.74

Source listed as patent US20250101041A1.
